# Test system: MALME-3M melanoma
# protocol details: NCI-60 one-dose screen, 48 h (100 = growth as untreated, 0 = no growth, -100 = all killed)
# test context: 10 µM unless noted
This is part of a sample that, as a whole, favours compounds with a hit. Of some 83,000 tested, about 20% had one in any assay.
compounds and their reported growth
Use % as the unit, but write only the number.

Reference set (3 entries):
* Cc1ccc2ccc3ccc(C)nc3c2n1.Cc1ccc2ccc3ccc(C)nc3c2n1.Oc1c(Cl)cc(Cl)c2ccc(CN3CCCCC3)nc12.[Ru] | -85.1
* CN(C)CCCOc1c2ccccc2nc2c1oc1ccc(Cl)cc12 | -8.62
* Clc1ccc2c(NCCCn3ccnc3)c3oc4ccc(Cl)cc4c3nc2c1 | 96.5

Enquiry: What does the data say about its growth? Entry: `O=C(CSc1nccc(=O)[nH]1)Nc1ccc(-c2nc3ccccc3[nH]2)cc1`
Return: 101

Enquiry: Then what about the compound `COc1ccc(/C=N/Nc2ccnc3cc(Cl)ccc23)cc1Cl` ?
Return: -78.5

Enquiry: Then what about the compound CC(O)C(NC(=O)C1CCCN1C(=O)CNC(=O)C1CC(=O)NCC(=O)NC(Cc2c[nH]c3ccccc23)C(=O)NC(Cc2ccc(O)cc2)C(=O)NCC(=O)NC(CO)C(=O)NC(CCC(N)=O)C(=O)NC(Cc2c[nH]c3ccccc23)C(=O)N1)C(=O)NCC(=O)NC(CCC(N)=O)C(=O)NC(CCCNC(=N)N)C(=O)NC(CC(=O)O)C(=O)O (configuration not stated) ?
Return: 95.5

Enquiry: Then what about the compound `C#C[C@]1(O)CC[C@H]2[C@@H]3CC=C4c5sc(-c6ccc(F)cn6)nc5CC[C@]4(C)[C@H]3CC[C@@]21C` ?
Return: 67.6
